# Tested on: HeLa
# Assay comment: Primary qHTS to identify gynecologic anti-cancer compounds using libraries of approved drugs and bioactive compounds (AID 1345084); further: nearly all actives have a fitted effect of over 55% in size
# Condition description: Gynecologic cancer cell panel viability, ATPlite luminescence, 48 h; series mostly up to 57.5 µM
Results filed as inconclusive are left out. Calls of active or inactive are those of the source. The call rests on the fitted dose curve; in most records, active means well fitted cell-killing curve with a large enough effect; inconclusive means small, poorly fitted or top-dose-only effect, or effect the other way; inactive means flat fitted curve, though single readings scatter.
Outcome field: choose from t = active, f = inactive

Q: What classification did O=C(CN1C2=NCCN2c2ccccc21)c1ccc(-c2ccccc2)cc1 end up with in this test?
A: f

* * *

# System: PA-1
# Assay comment: Primary qHTS to identify gynecologic anti-cancer compounds using libraries of approved drugs and bioactive compounds (AID 1345084); further: nearly all actives have a fitted effect of over 55% in size
# Condition description: Gynecologic cancer cell panel viability, ATPlite luminescence, 48 h; series mostly up to 57.5 µM
Results filed as inconclusive are left out. The source made the active and inactive calls. Calls follow the shape of the dose curve; as a rule, active = well fitted cell-killing curve with a large enough effect; inconclusive = small, poorly fitted or top-dose-only effect, or effect the other way; inactive = flat fitted curve, though single readings scatter.
Outcome field: choose from 1 = active, 0 = inactive

Completed entries (count: 5):
Compound | Tested system | Qualitative label
CN(C)[C@@H]1CCc2[nH]c3ccc(NC(=O)c4ccc(F)cc4)cc3c2C1 | PA-1 | 0
O=C(Nc1ncc([N+](=O)[O-])s1)c1ccccc1O | PA-1 | 0
CCC/C=C/C=C/C1CC(O)C2(O)C(=O)OCC12 (centres undefined) | PA-1 | 0
C=C(C)C(=O)OC1CC2(C)OC(=CC2=O)C(=C)CC2OC(=O)C(=C)C12 (centres undefined) | PA-1 | 1
C[C@@H](NC(=O)C(=O)c1c[nH]c2ccc([N+](=O)[O-])cc12)c1ccccc1 | PA-1 | 0

Q: What classification did O=c1cc(OCc2ccc(F)cc2)ccn1-c1ccc(OCCN2CCCC2)cc1 end up with in this test?
A: 0

Q: What classification did CCCCc1ccc(NS(=O)(=O)c2ccc(F)cc2)cc1 end up with in this test?
A: 0

Q: What classification did CC(O)C(C)n1ncn(-c2ccc(N3CCN(c4ccc(OCC5COC(Cn6cncn6)(c6ccc(Cl)cc6Cl)O5)cc4)CC3)cc2)c1=O (centres undefined) end up with in this test?
A: 0

Q: What classification did C=C1/C(=C/C=C2\CCC[C@]3(C)[C@@H]([C@@H](C)OCCC(O)(CC)CC)CC[C@@H]23)C[C@@H](O)C[C@@H]1O end up with in this test?
A: 0

* * *

# Tested on: CAOV3
# Assay comment: Primary qHTS to identify gynecologic anti-cancer compounds using libraries of approved drugs and bioactive compounds (AID 1345084); further: nearly all actives have a fitted effect of over 55% in size
# Condition description: Gynecologic cancer cell panel viability, ATPlite luminescence, 48 h; series mostly up to 57.5 µM
Results filed as inconclusive are left out. Active and inactive are the calls of the source. Calls follow the shape of the dose curve; as a rule, active = well fitted cell-killing curve with a large enough effect; inconclusive = small, poorly fitted or top-dose-only effect, or effect the other way; inactive = flat fitted curve, though single readings scatter.
Outcome field: choose from active, inactive

Completed entries (count: 4):
Molecule | Qualitative label
COc1cc([C@H]2O[C@H](c3cc(OC)c4c(c3)OCO4)[C@H](C)[C@H]2C)cc(OC)c1OC | inactive
CC(C)(N)c1ncc(-c2ccc(OC(F)(F)F)cc2)[nH]1 | inactive
NC(=O)c1cccc2[nH]c(-c3ccc(C4CCCN4)cc3F)nc12 (stereo not given) | active
COc1ccccc1C(=O)Nc1cccc(NC(=O)c2cccc(C)c2)c1 | inactive

Okay, next one:
Q: What classification did COc1ccccc1C(=O)Nc1cc2c(cc1N1CCCC1)n(C)c(=O)n2C end up with in this test?
A: inactive

* * *

# Tested system: Cytochrome P450 2D6 (Homo sapiens)
# Assay comment: Cytochrome P450 family 2 subfamily D member 6 (CYP2D6) small molecule antagonists: luciferase biochemical (cell-free) qHTS assay (AID 1645840); further: nearly all actives have a fitted effect of over 55% in size
# Condition description: P450-Glo CYP2D6 enzyme, luciferin luminescence, 1 h; series mostly up to 57.4 µM
Results filed as inconclusive are left out. Calls of active or inactive are those of the source. The call rests on the fitted dose curve; in most records, active means well fitted inhibition curve with a large enough effect in the repeat runs; inconclusive means weak or mixed curves; inactive means flat fitted curve, though single readings scatter.
Outcome field: choose from T = active, F = inactive

Completed entries (count: 4):
Compound | Qualitative label
CCC(CC)C(c1ccc(Nc2nc3ccccc3s2)cc1)n1cncn1 (centres undefined) | T
OC(c1ccc(-c2ccc(CN3CCN(Cc4ccncc4)CC3)cc2)c(F)c1)(C(F)(F)F)C(F)(F)F | T
CC(C)(C)Sc1c(CC(C)(C)C(=O)O)n(Cc2ccc(Cl)cc2)c2ccc(OCc3ccc4ccccc4n3)cc12 | F
O=C(C1CCCCC1)N(CCN1CCN(c2ccccc2O)CC1)c1ccccn1 | T

Q: What classification did Cc1ccc(S(=O)(=O)N2CCC[C@H]2c2ccc(F)cc2)cc1 end up with in this test?
A: F

Q: What classification did Cc1c(C(=O)Nc2ccc(N3CCC(N4CCOCC4)CC3)c(C#N)c2)cnn1-c1ccc(Cl)cc1 end up with in this test?
A: T

* * *

# Tested on: NIH3T3
# Assay comment: Cytotoxic Profiling of Annotated Libraries Using Quantitative High-Throughput Screening (AID 1296008); further: nearly all actives have a fitted effect of over 60% in size
# Condition description: Five cell lines viability, CellTiter-Glo ATP luminescence, 48-72 h
Inconclusive results are not listed. Active and inactive are the calls of the source. The call rests on the fitted dose curve; in most records, active means well fitted inhibition curve with a large enough effect; inconclusive means small, poorly fitted or top-dose-only effect; inactive means flat fitted curve, though single readings scatter.
Outcome field: choose from active, inactive

Completed entries (count: 8):
Compound | Tested system | Qualitative label
CCC(C)C1NC(=O)C(Cc2ccccc2)NC(=O)C(CCCCCC(=O)C(O)CO)NC(=O)C2CCCCN2C1=O (configuration not stated) | NIH3T3 | inactive
CCn1c(-c2nonc2N)nc2c(C#CC(C)(C)O)ncc(OCC3CCCNC3)c21 (configuration not stated) | NIH3T3 | inactive
NC(=O)c1cnc(N[C@@H]2CCCC[C@@H]2N)nc1Nc1cccc(-n2nccn2)c1 | NIH3T3 | active
C=C1CCN([C@H](C)[C@](O)(Cn2cncn2)c2ccc(F)cc2F)CC1 | NIH3T3 | inactive
Nc1c(S(=O)(=O)c2ccccc2)c2nc3ccccc3nc2n1-c1ccc(F)cc1 | NIH3T3 | inactive
COc1cc(N2CCC(O)CC2)ccc1Nc1nc(Nc2ccccc2S(=O)(=O)C(C)C)c2[nH]cnc2n1 | NIH3T3 | active
CC1(C)C2CCC(CO[C@@H]3O[C@H](CO[C@@H]4OC[C@](O)(CO)[C@H]4O)[C@@H](O)[C@H](O)[C@H]3O)C1C2 (some centres not stated) | NIH3T3 | inactive
C[C@H](CN(C)C)Oc1nc(Nc2cc3cccc(Cl)c3cn2)cnc1C#N | NIH3T3 | active

Q: What classification did Cc1[nH]c2ccccc2c1CCNCc1ccc(/C=C/C(=O)NO)cc1 end up with in this test?
A: active

Q: What classification did Cc1cc(C)c(S(=O)(=O)n2cc(C)cc2C)c(C)c1 end up with in this test?
A: inactive

Q: What classification did O=C(NC1CCN(CCCCC2(C(=O)NCC(F)(F)F)c3ccccc3-c3ccccc32)CC1)c1ccccc1-c1ccc(C(F)(F)F)cc1 end up with in this test?
A: active

Q: What classification did Cn1nc(-c2ccc(C(F)(F)F)cc2)nc2c(=O)n(C)c(=O)nc1-2 end up with in this test?
A: active

Q: What classification did COC(=O)c1cc(Br)cnc1N1CCC(NC2CCCCC2)C(O)C1 (configuration not stated) end up with in this test?
A: inactive

Q: What classification did CCCC(CCC)C(=O)Nc1ccn([C@@H]2O[C@H](CO)[C@@H](O)C2(F)F)c(=O)n1 end up with in this test?
A: active

Q: What classification did CCc1cc(C(N)=O)ccc1-n1nc(C(C)C)c2c(-n3cnc(-c4cnn(C)c4)c3)ccnc21 end up with in this test?
A: active

Q: What classification did C=C1C(=O)O[C@H]2C3=C(C)CCC[C@]3(C)C(=O)C[C@@H]12 end up with in this test?
A: active

Q: What classification did C=C1CO[C@@]2(O[C@H]3CC4C5CC=C6C[C@@H](O)C[C@@H](O[C@@H]7OC[C@H](O)[C@H](O[C@@H]8OC[C@@H](O)[C@H](O)[C@H]8O)[C@H]7O[C@@H]7O[C@@H](C)[C@H](OC(C)=O)[C@@H](OC(C)=O)[C@H]7OC(C)=O)[C@]6(C)C5CC[C@]4(C)[C@@H]3[C@@H]2C)[C@@H](O)[C@H]1OC1OC(C)C(O)C(O)C1O (some centres not stated) end up with in this test?
A: inactive

* * *

# System: Zika virus NS2B-NS3 protease (unlinked complex)
# Assay comment: Primary screen GU Rhodamine qHTS for Zika virus inhibitors: Unlinked NS2B-NS3 protease assay (AID 1347159); further: nearly all actives have a fitted effect of over 60% in size; further: potency means the concentration at half of the fitted maximal effect
# Condition description: Recombinant ZIKV NS2B-NS3 protease, Rhodamine110 substrate fluorescence; series mostly up to 107 µM
Records with an inconclusive call do not appear. Calls of active or inactive are those of the source. Calls come from the whole dose curve; as a rule, active = well fitted inhibition curve with a large enough effect; inconclusive = small, poorly fitted or top-dose-only effect; inactive = no such curve, though single readings can be large or run the other way. *1 amine or outer side, *2 acyl side, *3 side chain or, on linkers, in order; H or OH if unused. Where a SMILES comes first, the peptide text is derived from it. Bridges are numbered along the chain shown (N, C = ends). [ ]: non-standard residue; d: D form. The star is where a group is joined. pTerphenylCO(4''-OnC5H11) = CCCCCOc1ccc(-c2ccc(-c3ccc(C(=O)*)cc3)cc2)cc1; Orn(4R-OH,5R-OH) = O=C([C@H](C[C@@H](O)[C@@H](O)N[*:3])N[*:1])[*:2]; hTyr(3S-OH,4S-OH) = N[C@H](C(=O)O)[C@H](O)[C@@H](O)c1ccc(O)cc1; Pro(3S-OH,4S-Me) = C[C@H]1CN[C@H](C(=O)O)[C@H]1O; Hyp = O=C(O)[C@@H]1C[C@@H](O)CN1
Measured parameter: Potency

Reference set (5 entries):
Compound | Potency
C[C@@H](N[C@H]1CCCC[C@@H]1NC(=O)c1ccc(Cl)cc1)c1cccc2ccccc12 | inactive
Cc1ccc(C2(C(=O)N3CCC(n4nc(-c5ccccc5)oc4=O)CC3)CC2)cc1 | inactive
CC1=CC2/C=C(\C)CCC(O)C(=O)C(O)CC(=O)C23C(=O)NC(CC(C)C)C3C1C (stereo unspecified) | inactive
C=CC(=O)Nc1ccc2ncnc(Nc3cccc(Br)c3)c2c1 | 44.7 µM (active)
C=C1C(=O)O[C@@H]2/C=C(/C)[C@@H](OC(C)=O)C/C=C(\C)C[C@@H](OC(=O)/C(=C/CO)CO)[C@@H]12 | inactive

Q: For the compound shown here, COc1cc(O)cc(OC2OC(CO)C(O)C(O)C2O)c1 (stereo unspecified) , give the reported Potency.
A: inactive

Q: For the compound shown here, CNCc1cc(-c2ccccc2F)n(S(=O)(=O)c2cccnc2)c1 , give the reported Potency.
A: inactive

Q: For the compound shown here, Cc1cc(Nc2nc(-c3ccccc3)nc3ccccc23)n[nH]1 , give the reported Potency.
A: inactive

Q: For the compound shown here, COc1cc2ncc(-c3ccccc3)nc2cc1OC , give the reported Potency.
A: inactive

Q: For the compound shown here, COC(=O)C1=CO[C@@H](O[C@@H]2O[C@H](CO)[C@@H](O)[C@H](O)[C@H]2O)[C@H]2[C@@H]1C=C[C@]21C=C([C@H](C)OC(=O)/C=C/c2ccc(O)cc2)C(=O)O1 , give the reported Potency.
A: inactive

Q: For the compound shown here, N#Cc1ccc(O[C@@H]2c3ccccc3C[C@H]2N2CCC[C@@H](N)C2)c(Cl)c1 , give the reported Potency.
A: inactive

Q: For the compound shown here, CCCCCOc1ccc(-c2ccc(-c3ccc(C(=O)N[C@H]4C[C@@H](O)[C@@H](O)NC(=O)[C@@H]5[C@@H](O)[C@@H](C)CN5C(=O)[C@H]([C@@H](C)O)NC(=O)[C@H]([C@H](O)[C@@H](O)c5ccc(O)cc5)NC(=O)[C@@H]5C[C@@H](O)CN5C(=O)[C@H]([C@@H](C)O)NC4=O)cc3)cc2)cc1 ({pTerphenylCO(4''-OnC5H11)}-[Orn(4R-OH,5R-OH)]T[Hyp][hTyr(3S-OH,4S-OH)]T[Pro(3S-OH,4S-Me)]; lactam 1-C) , give the reported Potency.
A: 31.6 µM (active)

Q: For the compound shown here, Nc1c(S(=O)(=O)c2ccccc2)c2nc3ccccc3nc2n1-c1ccc(F)cc1 , give the reported Potency.
A: inactive

Q: For the compound shown here, Nc1nccc(-c2c(-c3ccc(F)cc3)ncn2C2CCCCC2)n1 , give the reported Potency.
A: inactive

Q: For the compound shown here, CCCCCCOC(=O)/N=C(\N)c1ccc(NCc2nc3cc(C(=O)N(CCC(=O)OCC)c4ccccn4)ccc3n2C)cc1 , give the reported Potency.
A: inactive

Q: For the compound shown here, Cc1c(Cl)cccc1S(=O)(=O)Nc1nc(NCCc2ccccc2)nc2c1CN(Cc1ccccc1)CC2 , give the reported Potency.
A: 7.94 µM (active)
